This collection of values is drawn from the supplement of paper PMC9116672.

- assay.explanation: duplex melting temperature (HRM, EvaGreen); higher = more stable duplex
- reported.conditions: duplex concentration 1 µM; backbone: PO-PO (both strands phosphodiester DNA)

{"residue.codes": "GTGGTACAAATGCGACC", "unit.of.measurement": "°C", "duplex melting temperature": 66.7}
{"residue.codes": "TAATTATACGAGTAGTTTCTGTCCTG", "unit.of.measurement": "°C", "duplex melting temperature": 71.5}
{"residue.codes": "GTCATTGTGCTTTTGC", "unit.of.measurement": "°C", "duplex melting temperature": 60.6}
{"residue.codes": "ATAACTTACTCTCGCCT", "unit.of.measurement": "°C", "duplex melting temperature": 63.6}
{"residue.codes": "GAGCAGAAGGGGTTGT", "unit.of.measurement": "°C", "duplex melting temperature": 63.5}
{"residue.codes": "GTGAGCAGAAGGGGTT", "unit.of.measurement": "°C", "duplex melting temperature": 64.4}
{"residue.codes": "GATTGTATCATCGACATCACACTACC", "unit.of.measurement": "°C", "duplex melting temperature": 73.7}
{"residue.codes": "TGTAAGACTTCTGCCAGAAA", "unit.of.measurement": "°C", "duplex melting temperature": 69}
{"residue.codes": "AGGAGTGAATGAAATGG", "unit.of.measurement": "°C", "duplex melting temperature": 59.4}
{"residue.codes": "ACTCGCTCTACCTTAAT", "unit.of.measurement": "°C", "duplex melting temperature": 60.4}
{"residue.codes": "CTGTAAGGCGATATGTT", "unit.of.measurement": "°C", "duplex melting temperature": 62.1}
{"residue.codes": "CGGGATTTCTGGCATCATTGTCCT", "unit.of.measurement": "°C", "duplex melting temperature": 76}
{"residue.codes": "CTCAGAGTAGAGCCGA", "unit.of.measurement": "°C", "duplex melting temperature": 63.7}
{"residue.codes": "GTGAAACAATGCTGTAG", "unit.of.measurement": "°C", "duplex melting temperature": 60.8}
{"residue.codes": "TTAACCTGCAATGGATC", "unit.of.measurement": "°C", "duplex melting temperature": 60.2}
{"residue.codes": "CGACATGTATGGCACAG", "unit.of.measurement": "°C", "duplex melting temperature": 64.6}
{"residue.codes": "CAAACTTAGTAATCACGCCCAGCAACCA", "unit.of.measurement": "°C", "duplex melting temperature": 78.3}
{"residue.codes": "TCTCGCGGTTCCATTA", "unit.of.measurement": "°C", "duplex melting temperature": 62.7}
{"residue.codes": "TTGAAAACCCATGTGC", "unit.of.measurement": "°C", "duplex melting temperature": 60.2}
{"residue.codes": "TTTGGGTTAGTAAGAAGGCAGCAGTTGGGC", "unit.of.measurement": "°C", "duplex melting temperature": 80.8}
{"residue.codes": "CGATTTTGTCAAGCCT", "unit.of.measurement": "°C", "duplex melting temperature": 64.1}
{"residue.codes": "ACATGACTCATCTTAGCCGGCGAG", "unit.of.measurement": "°C", "duplex melting temperature": 77.5}
{"residue.codes": "GAACCGTTGATGATCTC", "unit.of.measurement": "°C", "duplex melting temperature": 63.4}
{"residue.codes": "TATTCTGCCAATGGAAC", "unit.of.measurement": "°C", "duplex melting temperature": 61.3}
{"residue.codes": "CGTGTGGATAATTAGCT", "unit.of.measurement": "°C", "duplex melting temperature": 62}
{"residue.codes": "CCGCTCAGAGTAGAGA", "unit.of.measurement": "°C", "duplex melting temperature": 62.8}
{"residue.codes": "CGGTGCTTTTGGTAGC", "unit.of.measurement": "°C", "duplex melting temperature": 64.5}
{"residue.codes": "GCTGTGAAACAATGTAG", "unit.of.measurement": "°C", "duplex melting temperature": 60.4}
